test system: Pseudomonas aeruginosa; assay: Antibacterial activity against Pseudomonas aeruginosa incubated for 24 hrs by agar dilution method; format: functional
test.readout: MIC (µg/mL)
Entry rule: numbers only, all in µg/mL.

Solved entries:
CN1c2ccccc2Sc2cc(/C=N/OCc3cn(Cc4ccccc4)nn3)ccc21
50
CN1c2ccccc2Sc2cc(/C=N/OCc3cn(Cc4ccc(F)cc4)nn3)ccc21
25
CN1c2ccccc2Sc2cc(/C=N/OCc3cn(Cc4ccc(C#N)cc4)nn3)ccc21
25
c1ccc(Cn2cc(CN3c4ccccc4Sc4ccccc43)nn2)cc1
100
N#Cc1ccc(Cn2cc(CN3c4ccccc4Sc4cc(/C=N/NC(=O)c5ccccc5)ccc43)nn2)cc1
25
CN1c2ccccc2Sc2cc(COCc3cn(Cc4ccccc4F)nn3)ccc21
50
Fc1ccccc1Cn1cc(CN2c3ccccc3Sc3ccccc32)nn1
25
COc1ccc(Cn2cc(CN3c4ccccc4Sc4ccccc43)nn2)cc1
50

// query Request the reported MIC associated with "CN1c2ccccc2Sc2cc(/C=N/OCc3cn(Cc4ccc([N+](=O)[O-])cc4)nn3)ccc21"
// result 100

// query Request the reported MIC associated with "Cc1ccc(Cn2cc(COCc3ccc4c(c3)Sc3ccccc3N4C)nn2)cc1"
// result 100
